Biological target: hERG (Homo sapiens (Human), UniProt Q12809)
Sequence (Q12809 whole entry): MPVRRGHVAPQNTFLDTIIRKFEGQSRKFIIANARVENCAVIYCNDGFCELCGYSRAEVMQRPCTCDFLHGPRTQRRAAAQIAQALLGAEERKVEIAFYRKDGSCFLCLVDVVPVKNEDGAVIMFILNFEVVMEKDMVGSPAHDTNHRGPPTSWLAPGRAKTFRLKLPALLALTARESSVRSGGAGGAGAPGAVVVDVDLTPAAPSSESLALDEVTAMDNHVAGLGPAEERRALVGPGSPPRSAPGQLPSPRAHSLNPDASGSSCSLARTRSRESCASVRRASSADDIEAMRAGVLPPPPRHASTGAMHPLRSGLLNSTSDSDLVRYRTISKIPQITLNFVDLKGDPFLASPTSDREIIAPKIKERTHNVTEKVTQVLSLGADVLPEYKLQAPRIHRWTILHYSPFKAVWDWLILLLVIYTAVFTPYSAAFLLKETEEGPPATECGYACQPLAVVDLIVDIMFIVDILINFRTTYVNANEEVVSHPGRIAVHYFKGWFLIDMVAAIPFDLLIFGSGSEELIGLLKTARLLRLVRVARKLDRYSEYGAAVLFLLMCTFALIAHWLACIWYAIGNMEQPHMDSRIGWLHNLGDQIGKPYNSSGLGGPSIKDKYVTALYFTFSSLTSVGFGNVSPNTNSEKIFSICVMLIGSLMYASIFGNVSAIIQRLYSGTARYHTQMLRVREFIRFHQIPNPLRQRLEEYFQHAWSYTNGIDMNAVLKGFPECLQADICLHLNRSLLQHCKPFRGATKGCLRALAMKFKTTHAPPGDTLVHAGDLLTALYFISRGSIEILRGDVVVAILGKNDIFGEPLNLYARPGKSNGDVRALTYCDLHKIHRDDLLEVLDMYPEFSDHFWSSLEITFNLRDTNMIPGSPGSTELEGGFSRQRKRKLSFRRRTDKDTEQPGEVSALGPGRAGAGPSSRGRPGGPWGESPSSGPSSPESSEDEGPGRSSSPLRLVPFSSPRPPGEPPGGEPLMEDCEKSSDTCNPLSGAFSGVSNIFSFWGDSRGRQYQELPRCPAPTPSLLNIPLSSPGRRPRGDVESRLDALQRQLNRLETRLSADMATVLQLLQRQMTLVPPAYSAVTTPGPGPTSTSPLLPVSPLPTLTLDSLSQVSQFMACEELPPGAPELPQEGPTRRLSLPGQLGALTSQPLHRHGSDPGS
Assay: hERG profiling, fluorescent Tracer binding competition (FP)
Conditions: IC50 of Tracer Binding hERG Data 1, first run; 4 hours incubation
pIC50: −log10 of the molar value.
Below, each entry is listed alongside its reported pIC50.
Metric: pIC50

> print(dat)
                                   compound  metric  reported
1  COCCN1CCN(Cc2ccc(NC(=O)c3ccc(C)c(C#Cc4cnc5cccnn45)c3)cc2C2CC2)CC1 [CD-1-002]   pIC50      7.21
2  Cc1ccc(C(=O)Nc2ccc(CN3CCN(CCO)CC3)c(Cl)c2)cc1C#Cc1cnc2cccnn12 [TK3-141]   pIC50      6.86
3  Cc1ccc(C(=O)Nc2ccc(CN3CCN(CCO)CC3)c(C3CC3)c2)cc1C#Cc1cnc2cccnn12 [TK3-144]   pIC50      6.98
